# Test system: Pseudomonas aeruginosa ATCC 27853
# assay.protocol: Injectable formulations on mice infected with peritonitis
# Assay type: in vivo, ICR mice
# condition.parameters: 1 mg/kg via tail vein, twice a day for 3 days, n = 10
# Description: Both female and male ICR mice were used in the test, half of the female and male mice were taken and randomly assigned into groups, with 10 mice in each group, and kept in separate cages. The mice were divided into a blank control group, a negative control group, a positive control Levofloxacin group, and AMPs LV-1 to LV-30 groups. […] The death of mice in each group was observed, and survival time of the mice was recorded. […]
Non-standard residues stand in square brackets, D forms with d. Residues, ends and D or L forms follow the SMILES beside them. dPhe(3,4-Cl2) = N[C@H](Cc1ccc(Cl)c(Cl)c1)C(=O)O; dPhe(4-Cl) = N[C@H](Cc1ccc(Cl)cc1)C(=O)O; dPhe(4-F) = N[C@H](Cc1ccc(F)cc1)C(=O)O; d2Nal = N[C@H](Cc1ccc2ccccc2c1)C(=O)O; dNle = CCCC[C@@H](N)C(=O)O; dNva = CCC[C@@H](N)C(=O)O
readout: Number of mice that died on each day after infection: day 1

molecule: CC(=O)N[C@H](CCCNC(=N)N)C(=O)N[C@H](CCCNC(=N)N)C(=O)N[C@H](CC(C)C)C(=O)N[C@H](CC(C)C)C(=O)N[C@H](Cc1ccc2ccccc2c1)C(=O)N[C@H](CCCCN)C(=O)N[C@H](CC(C)C)C(=O)N[C@H](CCCCN)C(=O)N[C@H](Cc1ccc2ccccc2c1)C(=O)N[C@H](CCCCN)C(=O)N[C@H](CCCNC(=N)N)C(N)=O [LV-24] (Ac-[dR][dR][dL][dL][d2Nal][dK][dL][dK][d2Nal][dK][dR]-NH2)
value: 1 Mouse
//
molecule: CCCC[C@@H](NC(=O)[C@@H](CCCCN)NC(=O)[C@@H](CCCNC(=N)N)NC(C)=O)C(=O)N[C@H](CCCC)C(=O)N[C@H](Cc1ccc2ccccc2c1)C(=O)N[C@H](CCCNC(=N)N)C(=O)N[C@H](CCCC)C(=O)N[C@H](CCCCN)C(=O)N[C@H](Cc1ccc2ccccc2c1)C(=O)N[C@H](CCCNC(=N)N)C(=O)N[C@H](CCCCN)C(N)=O [LV-12] (Ac-[dR][dK][dNle][dNle][d2Nal][dR][dNle][dK][d2Nal][dR][dK]-NH2)
value: 0 Mouse
//
molecule: CC(=O)N[C@H](CCCNC(=N)N)C(=O)N[C@H](CCCCN)C(=O)N[C@H](CC(C)C)C(=O)N[C@H](CC(C)C)C(=O)N[C@H](Cc1ccc2ccccc2c1)C(=O)N[C@H](CCCNC(=N)N)C(=O)N[C@H](CC(C)C)C(=O)N[C@H](CCCCN)C(=O)N[C@H](Cc1ccccc1)C(=O)N[C@H](CCCNC(=N)N)C(=O)N[C@H](CCCCN)C(N)=O [LV-4] (Ac-[dR][dK][dL][dL][d2Nal][dR][dL][dK][dF][dR][dK]-NH2)
value: 0 Mouse

# molecule CC(=O)N[C@H](CCCNC(=N)N)C(=O)N[C@H](CCCCN)C(=O)N[C@H](CC(C)C)C(=O)N[C@H](CC(C)C)C(=O)N[C@H](Cc1ccc(F)cc1)C(=O)N[C@H](CCCCN)C(=O)N[C@H](CC(C)C)C(=O)N[C@H](CCCCN)C(=O)N[C@H](Cc1ccc(F)cc1)C(=O)N[C@H](CCCCN)C(=O)N[C@H](CCCNC(=N)N)C(N)=O [LV-5] (Ac-[dR][dK][dL][dL][dPhe(4-F)][dK][dL][dK][dPhe(4-F)][dK][dR]-NH2) ; its Number of mice that died on each day after infection: day 1 = 1 Mouse

# molecule CC(=O)N[C@H](CCCCN)C(=O)N[C@H](CCCCN)C(=O)N[C@H](CC(C)C)C(=O)N[C@H](CC(C)C)C(=O)N[C@H](Cc1ccc2ccccc2c1)C(=O)N[C@H](CCCCN)C(=O)N[C@H](CC(C)C)C(=O)N[C@H](CCCCN)C(=O)N[C@H](Cc1ccc2ccccc2c1)C(=O)N[C@H](CCCCN)C(=O)N[C@H](CCCCN)C(N)=O [LV-17] (Ac-[dK][dK][dL][dL][d2Nal][dK][dL][dK][d2Nal][dK][dK]-NH2) ; its Number of mice that died on each day after infection: day 1 = 0 Mouse

# molecule CC(=O)N[C@H](CCCNC(=N)N)C(=O)N[C@H](CCCCN)C(=O)N[C@@H](C(=O)N[C@@H](C(=O)N[C@H](Cc1ccc2ccccc2c1)C(=O)N[C@H](CCCNC(=N)N)C(=O)N[C@@H](C(=O)N[C@H](CCCCN)C(=O)N[C@H](Cc1ccc2ccccc2c1)C(=O)N[C@H](CCCNC(=N)N)C(=O)N[C@H](CCCCN)C(N)=O)C(C)C)C(C)C)C(C)C [LV-16] (Ac-[dR][dK][dV][dV][d2Nal][dR][dV][dK][d2Nal][dR][dK]-NH2) ; its Number of mice that died on each day after infection: day 1 = 2 Mouse

# molecule CC(=O)N[C@H](CCCNC(=N)N)C(=O)N[C@H](CCCCN)C(=O)N[C@H](CC(C)C)C(=O)N[C@H](CC(C)C)C(=O)N[C@H](Cc1ccc2ccccc2c1)C(=O)N[C@H](CCCNC(=N)N)C(=O)N[C@H](CC(C)C)C(=O)N[C@H](CCCCN)C(=O)N[C@H](Cc1ccc2ccccc2c1)C(=O)N[C@H](CCCNC(=N)N)C(=O)N[C@H](CCCCN)C(N)=O [LV-20] (Ac-[dR][dK][dL][dL][d2Nal][dR][dL][dK][d2Nal][dR][dK]-NH2) ; its Number of mice that died on each day after infection: day 1 = 1 Mouse

# molecule CC(=O)N[C@H](CCCNC(=N)N)C(=O)N[C@H](CCCCN)C(=O)N[C@H](CC(C)C)C(=O)N[C@H](CC(C)C)C(=O)N[C@H](Cc1ccc(Cl)cc1)C(=O)N[C@H](CCCCN)C(=O)N[C@H](CC(C)C)C(=O)N[C@H](CCCCN)C(=O)N[C@H](Cc1ccc(Cl)cc1)C(=O)N[C@H](CCCCN)C(=O)N[C@H](CCCNC(=N)N)C(N)=O [LV-7] (Ac-[dR][dK][dL][dL][dPhe(4-Cl)][dK][dL][dK][dPhe(4-Cl)][dK][dR]-NH2) ; its Number of mice that died on each day after infection: day 1 = 0 Mouse

# molecule CCC[C@@H](NC(=O)[C@@H](CCCCN)NC(=O)[C@@H](CCCNC(=N)N)NC(C)=O)C(=O)N[C@H](CCC)C(=O)N[C@H](Cc1ccc2ccccc2c1)C(=O)N[C@H](CCCNC(=N)N)C(=O)N[C@H](CCC)C(=O)N[C@H](CCCCN)C(=O)N[C@H](Cc1ccc2ccccc2c1)C(=O)N[C@H](CCCNC(=N)N)C(=O)N[C@H](CCCCN)C(N)=O [LV-13] (Ac-[dR][dK][dNva][dNva][d2Nal][dR][dNva][dK][d2Nal][dR][dK]-NH2) ; its Number of mice that died on each day after infection: day 1 = 3 Mouse

# molecule CC(=O)N[C@H](CCCNC(=N)N)C(=O)N[C@H](CCCCN)C(=O)N[C@H](CC(C)C)C(=O)N[C@H](CC(C)C)C(=O)N[C@H](Cc1ccc(Cl)c(Cl)c1)C(=O)N[C@H](CCCCN)C(=O)N[C@H](CC(C)C)C(=O)N[C@H](CCCCN)C(=O)N[C@H](Cc1ccc(Cl)c(Cl)c1)C(=O)N[C@H](CCCCN)C(=O)N[C@H](CCCNC(=N)N)C(N)=O [LV-8] (Ac-[dR][dK][dL][dL][dPhe(3,4-Cl2)][dK][dL][dK][dPhe(3,4-Cl2)][dK][dR]-NH2) ; its Number of mice that died on each day after infection: day 1 = 1 Mouse
